# protocol_description: Cytotoxicity against human HepG2 cells assessed as reduction in cell viability incubated for 24 hrs by MTT assay
# Assay type: toxicity, cell-based
measure_name: IC50 at 24 h
Hi, when you answer, please include the unit after the number. Thanks!

Consider the worked cases shown below.
>  <structure_smiles>
C[C@@H]1CC(=O)c2c(O)cccc2[C@@H]1O

>  <reading>
3 mM

$$$$
>  <structure_smiles>
C[C@@H]1CC(=O)c2c(O)cccc2[C@H]1O

>  <reading>
1 mM

$$$$

// below: IC50 at 24 h requested for another molecule
Enquiry: State its IC50 at 24 h for this molecule: CC1=CC(=O)c2c(O)cccc2C1=O
Return: 0.014 mM
